- system: T1, LNX2 PDZ2 (human, UniProt Q8N448 334-426)
- T1 construct: second PDZ domain of human LNX2, residues 334-426, numbering of the full-length human protein; […]; Labelled on amines with RED-NHS dye for MST; also called LNX2-2; not shown: His tag, N-terminal, cleaved
- T1 sequence (looked up): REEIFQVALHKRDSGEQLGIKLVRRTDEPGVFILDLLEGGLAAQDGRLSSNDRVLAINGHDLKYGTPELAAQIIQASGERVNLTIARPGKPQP
- assay-protocol: MST; […]; PBS tween 20 0.05%; room temperature; […]; duplicate
- condition-summary: both partners purified
measured-endpoint: Kd (µM)
Respond with the bare value in µM.

Prompt line: Recorded Kd of NLNSSRVLDLLV (also called P71L PBM peptide; SARS-CoV-2 P71L) [C-terminal SARS-CoV-2-E PBM P71L peptide of the beta variant] , please.
Response line: 47
